- System: CCRF-CEM
- RUN_DESCRIPTION: NCI tumour cell line growth inhibition, 48 h
The source made the active and inactive calls. Rule as the data show it: active = GI50 up to about 1.1 µM and inactive = higher.
Result category, one only: active, inactive

Consider the worked cases shown below.
# MOLECULE, ANSWER_LABEL
data = [
    ("CC(C)O/N=C/c1cc(NC(=S)OC(C)C)ccc1Cl", "inactive"),
    ("c1ccc(/N=C2/SC3=Nc4cccc5cccc(c45)N3/C2=N/c2ccccc2)cc1", "inactive"),
    ("CCCCCCCCCCCCCC(=O)OCC1OC(n2cc(F)c(=O)[nH]c2=O)C(N)C(OC(=O)CCCCCCCCCCCCC)C1O (centres undefined)", "inactive"),
]

Data request: // outcome(item) with item = Cc1cc(C)n(-c2nc3ccccc3c(=O)[nH]2)n1
Data returned: active

Data request: // outcome(item) with item = O=C(Nc1c(O)[nH]c(=S)[nH]c1=O)c1ccccc1F
Data returned: inactive

Data request: // outcome(item) with item = CO[C@@H](c1ccccc1)[C@H](O)[C@@](O)(c1ccccc1)P(=O)(OC)OC
Data returned: inactive

* * *

- System: RXF 393
- RUN_DESCRIPTION: NCI tumour cell line growth inhibition, 48 h
Calls of active or inactive are those of the source. Rule as the data show it: active = GI50 up to about 1.1 µM and inactive = higher.
Below, each entry is listed with its recorded GI50.

Data request: Would you mind telling me what GI50 value was observed for CSC1NC(c2ccccc2)=C(C#N)C(=O)N1C1OCC(OC(C)=O)C(OC(C)=O)C1OC(C)=O (centres undefined) ?
Data returned: > 100 µM (inactive)

* * *

Endpoint: GI50. System: HCT-15. Items follow.

# MOLECULE, VALUE_MEASURED
rows = [
    ("CC(=O)Nc1ccc(-c2nc3ccccc3s2)cc1Cl", "41.4 µM"),
    ("Cn1c2c(c3ccccc31)CCN(CCCCN1CCCCC1)C2=O", "> 100 µM"),
    ("O=C1Sc2cc3ccccc3cc2C(=O)Sc2ccc(Br)cc21", "2.43 µM"),
    ("O=C(CC(C(=O)c1ccsc1)c1cccs1)c1ccccc1 (stereo unspecified)", "56.4 µM"),
    ("O=C(O)c1nc2nc(Cl)c(Cl)nc2[nH]1", "> 100 µM"),
]

Switching to the query record.
Data request: Would you mind telling me what GI50 value was observed for COc1ccc(CCc2cc(OC)cc(OC)c2)cc1 ?
Data returned: 7.06 µM

* * *

- Test system: MOLT-4
- RUN_DESCRIPTION: NCI tumour cell line growth inhibition, 48 h
Active and inactive are the calls of the source. Cut-off read from the data, not from the text of the source: active = GI50 up to about 1.1 µM and inactive = higher.
Result category, one only: active, inactive

# MOLECULE, ANSWER_LABEL
measured = [
    ("COc1cc2c(c(C)c1O)[C@H]1COc3ccccc3[C@H]1O2", "inactive"),
    ("CC1=NN(C(=O)CC(=O)N(C(=O)c2ccccc2Cl)c2ccc(C)cc2)C(=O)C1/N=N/c1ccc([N+](=O)[O-])cc1 (centres undefined)", "inactive"),
    ("CCOc1ccc(NC(=O)CCc2nnc(SC)o2)cc1", "inactive"),
    ("O=C(O)c1ccccc1CC1Cc2ccccc2C1=O (centres undefined)", "inactive"),
    ("CCCCOC(=O)N[C@H]1CCc2cc(OC)c(OC)c(OC)c2-c2ccc(SC)c(=O)cc21", "active"),
    ("Cc1nc(-n2[nH]c(C)c(CCO)c2=O)[nH]c(=O)c1CCO", "inactive"),
    ("C[C@]12CCC(=O)C=C1CC[C@@H]1[C@@H]2[C@@H](O)C[C@@]2(C)[C@H]1CC[C@]2(O)C(=O)CO [HYDROCORTISONE]", "inactive"),
    ("CC1=NC(C(=O)O)Cc2c1[nH]c1ccccc21 (centres undefined)", "inactive"),
    ("CCCCCN(CCCCC)C(=O)[C@H](CCC(=O)O)NC(=O)c1cc2ccccc2[nH]1", "inactive"),
    ("CN(COC(=O)c1ccccc1)c1nc(N(C)COC(=O)c2ccccc2)nc(N(C)COC(=O)c2ccccc2)n1", "inactive"),
]

Data request: // outcome(item) with item = O=C1NC2(NC(=O)C1=O)Nc1ccccc1S2
Data returned: inactive

Data request: // outcome(item) with item = CCOC(=O)c1c(-c2cccc3ccccc23)c(C#N)c(=S)n(C2OC(COC(C)=O)C(OC(C)=O)C(OC(C)=O)C2OC(C)=O)c1C (centres undefined)
Data returned: inactive

Data request: // outcome(item) with item = COc1ccc([C@H]2C=[N+]([O-])O[C@H](OC3CCCC3)[C@@H]2OC(C)=O)cc1OC
Data returned: inactive

Data request: // outcome(item) with item = CCc1nn(CN2CCN(C)CC2)c(=S)n1/N=C\c1ccc(-c2ccc([N+](=O)[O-])cc2)o1
Data returned: inactive

Data request: // outcome(item) with item = CCOc1ccc(/N=C/c2c3ccccc3nc3ccccc23)cc1
Data returned: inactive

Data request: // outcome(item) with item = COc1ccccc1NC(=S)N/N=C/c1c(C)n(C)n(-c2ccccc2)c1=O
Data returned: inactive

Data request: // outcome(item) with item = CC12CC(=O)Nc3ccccc3N1C(c1ccccc1)=NO2 (centres undefined)
Data returned: inactive

Data request: // outcome(item) with item = COc1ccc(NC(=O)C2=C(SC)C(C#N)C(=O)N=C2N)cc1 (centres undefined)
Data returned: inactive

Data request: // outcome(item) with item = O=C(Nc1ccc(N2C(=O)CSC2c2cccs2)cc1)c1ccc(N2C(=O)CSC2c2cccs2)cc1 (centres undefined)
Data returned: inactive
